TARGET OF ASSAY: KRAS^G12C (Homo sapiens, UniProt P01116, G12C)
Sequence (P01116 1-188 isoform P01116-2 G12C): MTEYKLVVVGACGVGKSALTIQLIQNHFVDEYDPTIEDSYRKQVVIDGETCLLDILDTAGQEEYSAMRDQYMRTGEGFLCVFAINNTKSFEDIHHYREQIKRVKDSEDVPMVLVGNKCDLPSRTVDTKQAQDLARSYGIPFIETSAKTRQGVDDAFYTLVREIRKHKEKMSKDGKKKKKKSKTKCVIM
ASSAY SUMMARY: LC-MS occupancy measurements (KI and kinact determination)
Type: binding
CONDITION SET: fit of kobs vs concentration, MS occupancy; mean ± SD, n = 2; read-out: KI
Recorded measurements of pKi, one per entry
Friendly reminder that pKi comes from taking -log10 of the concentration in mol/L.

> print(dat)
                                   molecule  metric.name  observed.result
1  O=C(N1CCN(c2ncnc3cc(-c4c(O)cccc4F)c(Cl)cc23)CC1)n1ccnc1          pKi             4.39

From here, focus on the item given below.
Query: Quick one: pKi of CN1CCCC1COc1nc(N2CCN(C(=O)n3ccnc3)CC2)c2cc(Cl)c(-c3c(O)cccc3F)cc2n1 (centres unmarked) ?
Reply: 4.37

---

TARGET OF ASSAY: KRAS^G12C (Homo sapiens, UniProt P01116, G12C)
ASSAY SUMMARY: MANT-GDP nucleotide exchange assay (SOS1, GppNHp)
Type: biochemical
CONDITION SET: KRAS^G12C, 60 min incubation with inhibitor; mean ± SD, n = 3; read-out: IC50 inhibition of nucleotide exchange
METRIC NAME: IC50 (nM)
# output: bare number, implied unit nM

> print(dat)
                                   compound  observed.result
1  CN1CCCC1COc1nc(N2CCN(C(=O)n3ccnc3)CC2)c2cc(Cl)c(-c3c(O)cccc3F)cc2n1 (stereo not drawn)           243000
2  CN1CCCC1COc1nc(N2CCN(C(=O)CCl)CC2)c2cc(Cl)c(-c3c(O)cccc3F)cc2n1 (stereo not drawn)              642
3  C=CC(=O)N1CCN(c2nc(OCC3CCCN3C)nc3cc(-c4c(O)cccc4F)c(Cl)cc23)CC1 (stereo not drawn)              520

Query: Quick one: IC50 of `O=C(N1CCN(c2ncnc3cc(-c4c(O)cccc4F)c(Cl)cc23)CC1)n1ccnc1` ?
Reply: 67400

Query: // repeat for `C=CC(=O)N1CCN(c2ncnc3cc(-c4c(O)cccc4F)c(Cl)cc23)CC1` and report
Reply: 827

Query: // repeat for `O=C(CCl)N1CCN(c2ncnc3cc(-c4c(O)cccc4F)c(Cl)cc23)CC1` and report
Reply: 305

---

ASSAY SUMMARY: HPLC-based GSH reactivity and stability assay
Assay type: physicochemical
CONDITION SET: buffer; 5 mM glutathione, PBS pH 7.4, corrected for aqueous degradation; mean ± SD, n = 2; read-out: t1/2 GSH (converted)
Recorded measurements of half-life at 250 μM, one per entry

> print(dat)
                                   compound          metric.name  observed.result
1  CN1CCCC1COc1nc(N2CCN(C(=O)C3CN3)CC2)c2cc(Cl)c(-c3c(O)cccc3F)cc2n1 (centres unmarked)  half-life at 250 μM           > 72 h

From here, focus on the item given below.
Query: Quick one: half-life at 250 μM of O=C(C1CN1)N1CCN(c2ncnc3cc(-c4c(O)cccc4F)c(Cl)cc23)CC1 (centres unmarked) ?
Reply: > 72 h
